Reported CC50 at 7 days values for a set of compounds
- procedure summary: In vitro cytotoxicity assay (MTT cell viability) in HepG2 cells
- Format: cell-based, human
- condition summary: human
experimental endpoint: CC50 at 7 days

> print(dat)
                                   compound      result
1  Cc1c(C(=O)Nc2ccc(F)c(Cl)c2)c(C)n(C)c1C(=O)C(=O)Nc1ccccn1 [Example 309]     > 30 µM
2  Cc1cc(NC(=O)c2c(C)c(C(=O)C(=O)NC3(CN4CCOCC4)CCCC3)n(C)c2C)ccc1F [Example 595]     > 30 µM
3  Cc1cc(NC(=O)c2c(C)c(C(=O)C(=O)NC3(C)CC[C@H](O)[C@H](O)C3)n(C)c2C)ccc1F (stereo partly shown) [Example 703]     > 30 µM
4  Nc1ncc(CNC(=O)C(=O)c2c(Cl)c(C(=O)Nc3ccc(F)c(Cl)c3)c3n2CCC3)s1 [Example 562]  5 to 30 µM

* * *

- procedure summary: In vitro cytotoxicity assay (MTT cell viability) in HepG2 cells
- Assay type: cell-based, human
- condition summary: human
- Description: To evaluate antiviral selectivity, the cytotoxic activity of each compound was determined using a standard cell viability assay performed on the parental HepG2 cell line. Cell viability was determined by measuring the conversion of 3-(4,5-dimethylthiazol-2-yl)-2,5-diphenyltetrazolium bromide (MTT) to the insoluble formazan salt crystal that occurs in live cells. […] All absorbance values were converted to a percentage of the signal obtained from the vehicle treated controls. […]
The following compounds are listed with their measured CC50 at 7 days values.
experimental endpoint: CC50 at 7 days

> print(dat)
                       smiles.representation      result
 1  Cc1cc(NC(=O)c2c(Cl)c(C(=O)C(=O)N[C@H](C)C(F)(F)F)n3c2CCC3)cnc1F  5 to 30 µM
 2  Cc1c(C(=O)Nc2ccc(F)c(F)c2)c(C)n(C)c1C(=O)C(=O)Nc1ccc(F)cn1  5 to 30 µM
 3  Cc1c(C(=O)Nc2cccc(Cl)c2)c(C)n(C)c1C(=O)C(=O)N[C@]1(C)CC[C@@H](O)CC1     > 30 µM
 4  Cc1cc(NC(=O)c2c(C)c(C(=O)C(=O)NC3CCN(c4ccccn4)CC3)n(C)c2C)ccc1F  5 to 30 µM
 5  Cc1cc(NC(=O)c2c(C)c(C(=O)C(=O)N[C@H](C(=O)O)[C@H](C)O)n(C)c2C)ccc1F     > 30 µM
 6  Cc1cc(NC(=O)c2c(C)c(C(=O)C(=O)N[C@H](CO)[C@@H](C)O)n(CCF)c2C)ccc1F  5 to 30 µM
 7  Cc1cc(NC(=O)c2c(C)c(C(=O)C(=O)N[C@H]3CCCN(S(C)(=O)=O)C3)n(C)c2C)ccc1F  5 to 30 µM
 8  Cc1cc(NC(=O)c2cc(C(=O)C(=O)NC(C)(C)C(N)=O)n3c2CCCC3)ccc1F     > 30 µM
 9  Cc1cc(NC(=O)c2c(C)c(C(=O)C(=O)NCCc3c(C)[nH][nH]c3=O)n(C)c2C)ccc1F     > 30 µM
10  Cc1cc(NC(=O)c2c(C)c(C(=O)C(=O)N3CCC(F)(F)C3)n(C)c2C)cnc1F     > 30 µM

* * *

- procedure summary: In vitro cytotoxicity assay (MTT cell viability) in HepG2 cells
- Assay type: cell-based, human
- condition summary: human
experimental endpoint: CC50 at 7 days

> print(dat)
                                    compound          result
 1  Cc1cc(NC(=O)c2cc(C(=O)C(=O)N[C@H](CO)[C@@H](C)O)n3c2CCCC3)ccc1F         > 30 µM
 2  Cc1cc(NC(=O)c2c(C)c(C(=O)C(=O)Nc3ccn(C)n3)n(C)c2C)ccc1F         > 30 µM
 3  Cc1cc(NC(=O)c2c(Cl)c(C(=O)C(=O)NC(C)(C)C)n3c2CCC3)ccc1F      5 to 30 µM
 4  Cc1cc(NC(=O)c2c(C)c(C(=O)C(=O)N[C@@H](C(=O)O)C(C)(C)C)n(C)c2C)ccc1F         > 30 µM
 5  Cc1cc(NC(=O)c2c(C)c(C(=O)C(=O)NC(C)C(F)(F)F)n(C)c2C)ccc1F (stereo not drawn)      5 to 30 µM
 6  CC[C@@H](CO)NC(=O)C(=O)c1c(C)c(C(=O)Nc2ccc(F)c(C)c2)c(C)n1CCF      5 to 30 µM
 7  O=C(NC1(CO)CC(F)(F)C1)C(=O)c1c(Cl)c(C(=O)Nc2ccc(F)c(F)c2)c2n1CCC2      5 to 30 µM
 8  Cc1cc(NC(=O)c2cc(C(=O)C(=O)NC3(CO)CC3)n3c2CCCC3)ccc1F         > 30 µM
 9  Cc1c(C(=O)Nc2ccc(F)nc2)c(C)n(C)c1C(=O)C(=O)N[C@H]1C2CC3CC1C[C@](O)(C3)C2         > 30 µM
10  Cc1cc(NC(=O)c2c(C)c(C(=O)C(=O)N[C@@H](CO)C(=O)O)n(C)c2C)ccc1F         > 30 µM
11  O=C(NC1(CO)CC1)C(=O)c1c(Cl)c(C(=O)Nc2ccc(F)c(F)c2)c2n1CCC2         > 30 µM
12  Cc1cc(NC(=O)c2c(C)c(C(=O)C(=O)NC(C)(C)CO)n(CCF)c2C)cnc1F         > 30 µM
13  Cc1cc(NC(=O)c2c(C)c(C(=O)C(=O)NC3CCN(C4CCOCC4)CC3)n(C)c2C)ccc1F         > 30 µM
14  Cc1cc(NC(=O)c2c(Cl)c(C(=O)C(=O)NCC(C)(C)O)n3c2CCCC3)ccc1F  0.5 to 4.99 µM
15  Cc1cc(NC(=O)c2c(C)c(C(=O)C(=O)N[C@H](C)CO)n(C)c2C)ccc1F         > 30 µM
16  Cc1noc([C@H](C)NC(=O)C(=O)c2cc(C(=O)Nc3ccc(F)c(C)c3)c3n2CCCC3)n1         > 30 µM
17  Cc1cc(NC(=O)c2c(Cl)c(C(=O)C(=O)NC(C)(C)CO)n3c2CCC3)ccc1F         > 30 µM
18  Cc1cc(NC(=O)c2c(C)c(C(=O)C(=O)N[C@H]3C[C@@H](NS(C)(=O)=O)C3)n(C)c2C)ccc1F         > 30 µM
19  Cc1cc(NC(=O)c2cc(C(=O)C(=O)NC3(C)COC3)n3c2CCCC3)ccc1F         > 30 µM
20  Cc1cc(NC(=O)c2cc(C(=O)C(=O)NC(C)(C)C)n3c2CN(C(=O)OC(C)(C)C)CC3)ccc1F         > 30 µM
21  Cc1cc(NC(=O)c2c(C)c(C(=O)C(=O)NCCc3ccsc3)n(C)c2C)ccc1F      5 to 30 µM
22  Cc1c(C(=O)Nc2ccn(C)n2)c2n(c1C(=O)C(=O)NC1(CO)CCC1)CCCC2         > 30 µM
23  Cc1c(C(=O)Nc2ccnc(Cl)c2)c(C)n(C)c1C(=O)C(=O)NC(C)(C)CN1CCOCC1         > 30 µM
24  Cc1cc(NC(=O)c2c(C)c(C(=O)C(=O)N[C@H]3CC[C@](C)(O)CC3)n(C)c2C)ccc1F         > 30 µM
25  Cc1noc([C@@H](C)NC(=O)C(=O)c2c(Cl)c(C(=O)Nc3ccc(F)c(C)c3)c3n2CCC3)n1         > 30 µM
26  Cc1noc([C@H](C)NC(=O)C(=O)c2c(Cl)c(C(=O)Nc3ccc(F)c(C)c3)c3n2CCCC3)n1      5 to 30 µM
27  Cc1cc(NC(=O)c2c(C)c(C(=O)C(=O)NC3CCN(C4COC4)CC3)n(C)c2C)ccc1F         > 30 µM
28  Cc1cc(NC(=O)c2c(C)c(C(=O)C(=O)N[C@@H]3CCOC[C@H]3O)n(CCF)c2C)ccc1F         > 30 µM
29  Cc1noc([C@@H](C)NC(=O)C(=O)c2c(C)c(C(=O)Nc3cnc(F)c(C)c3)c3n2CCCC3)n1         > 30 µM
30  Cc1cc(NC(=O)c2c(C)c(C(=O)C(=O)NC3(CO)CC(F)(F)C3)n3c2CCCC3)ccc1F      5 to 30 µM

* * *

Each entry below carries its reported CC50 at 7 days.
- procedure summary: In vitro cytotoxicity assay (MTT cell viability) in HepG2 cells
- Type: cell-based, human
- condition summary: human
experimental endpoint: CC50 at 7 days

> print(dat)
                                    molecule      result
 1  Cc1cc(NC(=O)c2c(C)c(C(=O)C(=O)NCC(O)c3ccsc3)n(C)c2C)ccc1F (stereo not drawn)     > 30 µM
 2  Cc1cc(NC(=O)c2c(Cl)c(C(=O)C(=O)NC3(CO)CCC3)n3c2CCCC3)ccc1F  5 to 30 µM
 3  Cc1cc(NC(=O)c2c(C)c(C(=O)C(=O)N[C@@]3(C)CC[C@@H](O)C3)n(C)c2C)ccc1F     > 30 µM
 4  Cc1cc(NC(=O)c2c(C)c(C(=O)C(=O)NC[C@H](C)O)n(C)c2C)ccc1F  5 to 30 µM
 5  Cc1cc(NC(=O)c2c(C)c(C(=O)C(=O)NCc3csc(N)n3)n(C)c2C)ccc1F     > 30 µM
 6  CO[C@H]1CC[C@@H](NC(=O)C(=O)c2c(C)c(C(=O)Nc3ccnc(Cl)c3)c(C)n2C)CC1     > 30 µM
 7  O=C(NC1(CO)CC(F)(F)C1)C(=O)c1c(Cl)c(C(=O)Nc2ccc(F)c(F)c2)c2n1CCCC2     > 30 µM
 8  Cc1cc(NC(=O)c2c(C)c(C(=O)C(=O)N[C@H]3CC[C@H](O)CC3)n(C)c2C)cnc1F     > 30 µM
 9  Cc1cc(NC(=O)c2cc(C(=O)C(=O)NC(C)C)n3c2CCCC3)ccc1F  5 to 30 µM
10  O=C(NC1(CO)CCC1)C(=O)c1c(Cl)c(C(=O)Nc2ccc(F)c(Cl)c2)c2n1CCC2  5 to 30 µM
11  Cc1cc(NC(=O)c2c(C)c(C(=O)C(=O)N[C@H]3C[C@@H](O)C3(C)C)n(C)c2C)ccc1F     > 30 µM
12  Cc1cc(NC(=O)c2c(C)c(C(=O)C(=O)N[C@@H](C(N)=O)C(C)C)n(C)c2C)ccc1F  5 to 30 µM
13  Cc1cc(NC(=O)c2c(C)c(C(=O)C(=O)NC3(C)CCN(c4cnccn4)CC3)n(C)c2C)ccc1F  5 to 30 µM
14  CNC(=O)[C@@H](NC(=O)C(=O)c1c(C)c(C(=O)Nc2ccc(F)c(C)c2)c(C)n1C)C1CC1     > 30 µM
15  Cc1cc(NC(=O)c2c(C)c(C(=O)C(=O)NC3C(=O)NCC3(C)C)n(C)c2C)ccc1F (stereo not drawn)     > 30 µM
